Kindly supply the reported IC50 values for the records listed here.
# ASSAY_TARGET: SCD5 (Homo sapiens)
# Construct: host or cells: S. cerevisiae ole1Δ strain (W303 pdr1Δ pdr3Δ background), plasmid pRS316 with TDH3 promoter and CYC1 terminator
# TEST_PROTOCOL: Growth inhibition of humanized yeast strain expressing SCD5 as sole desaturase
# Assay type: cell-based
# STATED_CONDITIONS: humanized yeast strain expressing SCD5

The examples below pair each entry with its known result.
CC(C)n1ncc2ccc(-c3noc(C4CCN(C(=O)c5ccccc5F)CC4)n3)cc21 [Compound 532] = 2.15 µM
CC(C)n1ncc2ccc(-c3noc(C4CCN(C(=O)CNC(=O)OC(C)(C)C)CC4(F)F)n3)cc21 (stereo not shown) [Compound 525] = > 45 µM
Cc1nn(C)c2cc(-c3noc(C4CCN(C(=O)[C@H]5CC(=O)N(c6ccccc6)C5)CC4(F)F)n3)ccc12 (stereo partly shown) [Compound 241] = > 45 µM
Cn1ncc2ccc(-c3noc(C4CCN(C(=O)c5ccnc(-c6ccccc6)c5)CC4)n3)cc21 [Compound 208] = > 45 µM
Cc1nn(C)c2cc(-c3noc(N4CCN(C(=O)CNC(=O)c5ccccc5)CC4)n3)ccc12 [compound 102] = > 45 µM
CCNCc1nc(-c2ccc3c(c2)N(CC)C(=O)CO3)no1 [Compound 493] = 30.2 µM
CC(C)N1C(=O)CCc2ccc(-c3noc(C4CCN(C(=O)OC(C)(C)C)CC4)n3)cc21 [Compound 572] = 15 µM
Cc1nn(C)c2nc(-c3noc(C4CCN(C(=O)C5CC(=O)N(c6ccccc6)C5)CC4)n3)ccc12 (stereo not shown) [Compound 116] = > 45 µM

Parameter requested: IC50. Apply to each item below.
1. CC(C)n1ncc2ccc(-c3nc(N4CCN(C(=O)c5ccccc5Cl)CC4)no3)cc21 [Compound 580]
2. CCOc1ccc(-c2noc(C3CCN(C(=O)CN4Cc5ccccc5C4=O)CC3)n2)cc1OC [Compound 106]
3. CCOc1ccc(-c2noc(C3CCN(C(=O)CNC(=O)c4ccccc4)CC3)n2)nc1OC [Compound 107]

[out]
0.022 µM
> 45 µM
> 45 µM

Hi team, please reply with IC50 for each item in this list.
1. CC(C)n1ncc2ccc(-c3nc(C4CCN(C(=O)OC(C)(C)C)C4)no3)cc21 (stereo not shown) [Compound 524]
2. COc1ccc(-c2nccc(C3CCN(C(=O)CNC(=O)c4ccccc4)CC3)n2)cc1OC [Compound 221]
3. CC(C)n1ncc2ccc(N3CC4(CCN(C(=O)OC(C)(C)C)CC4)OC3=O)cc21 [Compound 515]
4. CC(C)n1ncc2ccc(-c3noc(N4CC5(CCN(C(=O)OC(C)(C)C)CC5)C4)n3)cc21 [Compound 555]
5. Cc1cc(N2CC(C(=O)N3CCC(c4nc(-c5ccc6c(C)nn(C)c6c5)no4)CC3)CC2=O)ccn1 (stereo not shown) [Compound 183]

[out]
1: 2.5 µM; 2: > 45 µM; 3: > 45 µM; 4: > 45 µM; 5: > 45 µM

====

# ASSAY_TARGET: SCD5 (Homo sapiens)
# Construct: host or cells: S. cerevisiae ole1Δ strain (W303 pdr1Δ pdr3Δ background), plasmid pRS316 with TDH3 promoter and CYC1 terminator
# TEST_PROTOCOL: Growth inhibition of humanized yeast strain expressing SCD5 as sole desaturase
# Format: cell-based
# STATED_CONDITIONS: humanized yeast strain expressing SCD5
MEASUREMENT_LABEL: IC50

Example entries and their recorded answers appear below.
CCOc1ccc(-c2noc(C3CCN(C(=O)CNC(=O)c4ccccc4)CC3)n2)cc1F = 30 µM
CC(C)n1ncc2ccc(N3CC4(CCN(C(=O)OC5CC5)CC4)C3)cc21 = 11.8 µM
CCN(Cc1nc(-c2ccc(OC)c(OC)c2)no1)C(=O)Cc1ccccc1 = > 45 µM
CCN1C(=O)COc2ccc(-c3noc(C4CCN(C(=O)C5CC(=O)N(c6ccc(C)c(C)c6)C5)CC4)n3)cc21 (stereo not drawn) = > 45 µM
CC(C)n1ncc2ccc(-c3noc(C4CCN(C(=O)c5ccccc5)CC4)n3)cc21 = > 45 µM
Cc1nn(C)c2nc(-c3noc(C4CCN(C(=O)CNC(=O)c5ccccc5)CC4)n3)ccc12 = > 45 µM
Cc1nn(C)c2nc(-c3noc(C4CCN(C(=O)CN5Cc6ccccc6C5=O)CC4)n3)ccc12 = > 45 µM
COc1ccc(-c2noc(CCNC(=O)CNC(=O)c3ccccc3)n2)cc1OC = > 45 µM

Dear colleague, could you please provide IC50 for the molecules listed below?
1. Cc1nn(C)c2cc(-c3noc(C4(C)CCN(C(=O)CNC(=O)c5ccccc5)CC4)n3)ccc12
2. Cc1ccc(-c2noc(C3CCN(C(=O)[C@H]4CC(=O)N(c5ccc(C)c(C)c5)C4)CC3)n2)cc1 (single isomer, unassigned)
3. O=C(C1CC(=O)N(c2cccc(Cl)c2)C1)N1CCC(c2nc(N3CCOCC3)no2)CC1 (stereo not drawn)
4. O=C(NCC(=O)N1CCC(c2nc(-c3ccc4cnn(C5COC5)c4c3)no2)CC1)c1ccccc1
5. Cc1nn(C)c2cc(-c3noc(C4CCN(C(=O)CNC(=O)c5cccc(C#N)c5)CC4)n3)ccc12 [Compound 268]
6. COc1ccc(-c2noc(C3CCN(C(=O)C4CC(=O)N(C5CCCCC5)C4)CC3)n2)cc1OC (stereo not drawn)
7. Cc1nn(C)c2cc(-c3noc(C4CCN(C(=O)CN5Cc6ccccc6C5=O)CC4)n3)cnc12
8. CC(C)n1ncc2ccc(-c3noc(C4CCN(C(=O)OC(C)(C)C)CC4)n3)cc21

[out]
["> 45 µM", "> 45 µM", "> 45 µM", "> 45 µM", "> 45 µM", "> 45 µM", "41.1 µM", "> 45 µM"]

====

# ASSAY_TARGET: Ole1 (Saccharomyces cerevisiae, UniProt P21147)
# Construct: expressed in transfected cells; host or cells: S. cerevisiae ole1Δ strain (W303 pdr1Δ pdr3Δ background), plasmid pRS316 with TDH3 promoter and CYC1 terminator
# Sequence (P21147 whole entry): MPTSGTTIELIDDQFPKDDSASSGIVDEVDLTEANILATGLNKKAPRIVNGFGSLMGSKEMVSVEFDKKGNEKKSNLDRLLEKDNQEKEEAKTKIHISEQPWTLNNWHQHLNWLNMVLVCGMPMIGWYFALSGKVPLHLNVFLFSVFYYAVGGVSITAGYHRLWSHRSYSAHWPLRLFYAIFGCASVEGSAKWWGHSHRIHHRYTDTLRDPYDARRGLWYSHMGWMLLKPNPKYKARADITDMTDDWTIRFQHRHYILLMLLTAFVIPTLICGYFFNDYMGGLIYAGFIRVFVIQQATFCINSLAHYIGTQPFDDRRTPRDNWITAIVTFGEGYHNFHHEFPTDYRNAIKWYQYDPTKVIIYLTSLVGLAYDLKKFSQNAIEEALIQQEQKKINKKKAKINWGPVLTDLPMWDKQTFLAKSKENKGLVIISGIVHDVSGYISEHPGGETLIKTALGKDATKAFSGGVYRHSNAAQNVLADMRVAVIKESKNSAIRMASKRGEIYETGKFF
# TEST_PROTOCOL: Growth inhibition of yeast strain expressing Ole1 as sole desaturase
# Type: cell-based
# STATED_CONDITIONS: yeast strain expressing Ole1 as sole desaturase
Label fulfilled when OLE1 % Max Inhibition is at or above 60%; anything below gets not fulfilled.

O=C(NCC(=O)N1CCC(c2nc(-c3ccc(F)cc3)no2)CC1)c1ccccc1 = fulfilled
Cc1nn(C)c2cc(-c3noc(C4CCN(C(=O)N[C@@H]5C[C@@H]5c5ccccc5)CC4)n3)ccc12 = not fulfilled
COc1ccc(-c2nnc(C3CCN(C(=O)CNC(=O)c4ccccc4)CC3)o2)cc1OC = fulfilled

[in] Assess whether reported OLE1 % Max Inhibition for `CCOc1ccc(-c2noc(C3CCN(C(=O)N4CCCCC4)CC3)n2)cc1OC` sits at 60% or higher.
[out] fulfilled

[in] Is it the case that `Cc1nn(C)c2cc(-c3noc(C4CCN(C(=O)CNC(=O)c5ccccn5)CC4)n3)ccc12` has OLE1 % Max Inhibition reaching or exceeding 60%?
[out] not fulfilled

[in] Tell me whether OLE1 % Max Inhibition is at least 60% here: `Cc1nn(C)c2cc(-c3noc(C4CCN(C(=O)[C@@H](CO)NC(=O)c5ccccc5)CC4)n3)ccc12`
[out] not fulfilled

[in] hey, is OLE1 % Max Inhibition for this one >= 60%? `CCOc1ncc(-c2noc(C3CCN(C(=O)CNC(=O)c4ccccc4)CC3)n2)cc1OC`
[out] not fulfilled

[in] Item Cc1ncc2ccc(-c3noc(C4CCN(C(=O)C5CC(=O)N(c6ccccc6)C5)CC4)n3)cn12 (centres unmarked) with OLE1 % Max Inhibition of 60% or above?
[out] fulfilled

====

Consider the following compounds; for each one, report its log10 of IC50.
# ASSAY_TARGET: SCD5 (Homo sapiens)
# Construct: host or cells: S. cerevisiae ole1Δ strain (W303 pdr1Δ pdr3Δ background), plasmid pRS316 with TDH3 promoter and CYC1 terminator
# Sequence (Q86SK9 1-330): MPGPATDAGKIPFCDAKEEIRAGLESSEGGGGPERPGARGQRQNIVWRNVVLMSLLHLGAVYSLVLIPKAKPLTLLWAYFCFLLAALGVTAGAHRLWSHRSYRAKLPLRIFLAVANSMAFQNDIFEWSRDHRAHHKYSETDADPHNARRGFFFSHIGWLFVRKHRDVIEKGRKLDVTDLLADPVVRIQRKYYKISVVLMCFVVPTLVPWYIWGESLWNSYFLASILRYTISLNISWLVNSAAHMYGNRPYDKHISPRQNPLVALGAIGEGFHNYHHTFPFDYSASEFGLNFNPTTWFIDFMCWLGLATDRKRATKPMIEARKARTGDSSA
# TEST_PROTOCOL: Growth inhibition of humanized yeast strain expressing SCD5 as sole desaturase
# Assay type: cell-based
# STATED_CONDITIONS: humanized yeast strain, 40 h
# Experimental: Strain oleΔ (yeast ole1 deletion mutant) was constructed by deleting OLE1 with NAT-MX6 in BY4741, amplifying the deletion cassette from the genomic DNA of the resulting strain with primers flanking the ORF by 1000 bp upstream and downstream, transforming the resulting deletion cassette into W303 pdr1Δ pdr3Δ, and plating transformants on YPD media containing G418 (200 μg/mL) and nourseothricin ([…]) with 0.01% TWEEN®-20 and 0.5 mM oleic and palmitoleic acids. […]
Form field - Quantity: IC50; Unit: nM; Scale: log10

CC(C)(C)OC(=O)N1CC2(C1)CN(c1noc(-c3ccc4cnn(C5COC5)c4c3)n1)C2 = 3.29
O=C(C1CCC1)N1CCN(c2noc(-c3ccc4cnn(C5COC5)c4c3)n2)CC1 = 1.32
CC(C)(C)OC(=O)N1CCC(c2nsc(-c3ccc4cnn(C5COC5)c4c3)n2)CC1 = 1.43
COC(=O)N1CCCN(c2noc(-c3cc(F)c4cnn(C5COC5)c4c3)n2)CC1 = 2.20

Okay, now this compound:
[in] I am curious: what log10 of IC50 value has been reported for CC(C)(C)OC(=O)N1CCN(c2nc(-c3cccc(C4CCOC4)c3)no2)CC1 (centres unmarked) ?
[out] 3.34

These entries and their values trace back to patent US11873298B2.
